# IC50 values compiled below
Biological target: one or more of HDAC-4, HDAC-5, HDAC-6, HDAC-7, HDAC-8, HDAC-9, HDAC-10 and HDAC-11
Test: Inhibition of histone deacetylase enzymatic activity (summary statement over isoforms)
Conditions: Table 3, selected examples; HDAC isoform not given
Description: The following protocol is used to assay the compounds of the invention. The mixture is pre-incubated for 5 minutes at room temperature. The reaction is started by bringing the temperature to 37° C. and adding 15 μL substrate. Total reaction volume is 50 μL. A 30 mM stock of Boc-Lys(trifluoroacetyl)-AMC substrate is prepared in DMSO. […] Reaction is started by adding 18 μL Boc-Lys(trifluoroacetyl)-AMC substrate and incubating at 37° C. for 20-30 minutes. […]

- compound: "CCCC(=O)N1CCCN(C(C(=O)NO)c2ccccc2)CC1 (centres unmarked)"
  IC50: "1 to 15 µM"
- compound: "CN1CCCC1CCOc1cccc(C(C(=O)NO)c2ccccc2)c1 (centres unmarked)"
  IC50: "< 1 µM"
- compound: "O=C(NO)C(c1ccccc1)c1ccc(OCCOc2ccc(F)cc2)cc1 (centres unmarked)"
  IC50: "< 1 µM"
- compound: "N#Cc1ccccc1COc1ccc(C(C(=O)NO)c2ccccc2)cc1 (centres unmarked)"
  IC50: "< 1 µM"
- compound: "O=C(NO)C(c1ccccc1)c1ccc(N2Cc3ccccc3C2)cc1 (centres unmarked)"
  IC50: "< 1 µM"

* * *

Target: one or more of HDAC-4, HDAC-5, HDAC-6, HDAC-7, HDAC-8, HDAC-9, HDAC-10 and HDAC-11
Experiment: Inhibition of histone deacetylase enzymatic activity (summary statement over isoforms)
Conditions: Table 3, selected examples; HDAC isoform not given
parameter: IC50

- compound: "O=C(NO)C(c1ccccc1)c1ccc(NCc2ccncc2)cc1 (centres unmarked)"
  endpoint-result: "< 1000 nM"
- compound: "CCC(=O)ONC(=O)C(c1ccccc1)c1ccc(N2CCOCC2)cc1 (centres unmarked)"
  endpoint-result: "1000 to 15000 nM"
- compound: "CCN(CC)CC#Cc1ccc(C(C(=O)NO)c2ccccc2)cc1 (centres unmarked)"
  endpoint-result: "< 1000 nM"
- compound: "O=C(NO)C(c1ccccc1)c1nnc(-c2ccc3[nH]ccc3c2)s1 (centres unmarked)"
  endpoint-result: "< 1000 nM"
- compound: "O=C(NO)C(c1ccccc1)c1ccc(N2CCCC2=O)cc1 (centres unmarked)"
  endpoint-result: "< 1000 nM"

* * *

# IC50 values compiled below
Target: one or more of HDAC-4, HDAC-5, HDAC-6, HDAC-7, HDAC-8, HDAC-9, HDAC-10 and HDAC-11
Assay: Inhibition of histone deacetylase enzymatic activity (summary statement over isoforms)
Details: Table 3, selected examples; HDAC isoform not given

- compound: "O=C(NO)C(c1ccc(N2CCOCC2)cc1)c1cccc2ccccc12 (centres unmarked)"
  IC50: "< 1000 nM"
- compound: "O=C(NO)C(c1ccccc1)N1CCC(Cc2ccccc2)CC1 (centres unmarked)"
  IC50: "< 1000 nM"
- compound: "O=C(NO)C(c1ccccc1)c1cccc(C#CCC2CCCC2)c1 (centres unmarked)"
  IC50: "< 1000 nM"
- compound: "O=C(CN(Cc1ccccc1)S(=O)(=O)c1ccccc1)NO"
  IC50: "1000 to 15000 nM"
- compound: "COc1ccc(OC(C(=O)NO)c2ccccc2)cc1 (centres unmarked)"
  IC50: "1000 to 15000 nM"
